- Test Description: Solubility estimate by aliquot addition with visual observation
- Assay type: physicochemical
- Cond: aqueous with cosolvent or surfactant or cyclodextrin, thermodynamic from solid; 1M HCl:acetone 60:40, ambient; read-out: Solubility
Measured Quantity: solubility (µg/mL)
Please give a number only; it is taken to be in µg/mL.

Please report the recorded solubility for CC(C)N1CCN(c2ccc(Nc3ncc4cc5n(c4n3)C3(CCCCC3)CNC5=O)nc2)CC1 [Impure Form B] .
4000

* * *

- Test Description: Solubility estimate by aliquot addition with visual observation
- Assay type: physicochemical
- Cond: organic solvent or mixture, thermodynamic from solid; 0.5M HCl:acetone 20:80, ambient; read-out: Solubility
Measured Quantity: solubility

Please report the recorded solubility for CC(C)N1CCN(c2ccc(Nc3ncc4cc5n(c4n3)C3(CCCCC3)CNC5=O)nc2)CC1 [Impure Form B] .
< 1000 µg/mL

* * *

- Test Description: Solubility estimate by aliquot addition with visual observation
- Assay type: physicochemical
- Cond: aqueous buffer, thermodynamic from solid; 5.0M HCl, ambient; read-out: Solubility
Measured Quantity: solubility (µg/mL)
Please give a number only; it is taken to be in µg/mL.

Please report the recorded solubility for CC(C)N1CCN(c2ccc(Nc3ncc4cc5n(c4n3)C3(CCCCC3)CNC5=O)nc2)CC1 [Impure Form B] .
3000

* * *

- Test Description: Solubility estimate by aliquot addition with visual observation
- Format: physicochemical
- Cond: aqueous with cosolvent or surfactant or cyclodextrin, thermodynamic from solid; 1M HCl:acetone 50:50, ambient; read-out: Solubility
Measured Quantity: solubility (µg/mL)
Please give a number only; it is taken to be in µg/mL.

Please report the recorded solubility for CC(C)N1CCN(c2ccc(Nc3ncc4cc5n(c4n3)C3(CCCCC3)CNC5=O)nc2)CC1 [Impure Form B] .
4000

* * *

- Test Description: Solubility estimate by aliquot addition with visual observation
- Format: physicochemical
- Cond: organic solvent or mixture, thermodynamic from solid; 0.5M HCl:acetone 10:90, ambient; read-out: Solubility
Measured Quantity: solubility

Please report the recorded solubility for CC(C)N1CCN(c2ccc(Nc3ncc4cc5n(c4n3)C3(CCCCC3)CNC5=O)nc2)CC1 [Impure Form B] .
< 1000 µg/mL

* * *

- Test Description: Solubility estimate by aliquot addition with visual observation
- Format: physicochemical
- Cond: aqueous buffer, thermodynamic from solid; 2.0M HCl, ambient; read-out: Solubility
Measured Quantity: solubility (µg/mL)
Please give a number only; it is taken to be in µg/mL.

Please report the recorded solubility for CC(C)N1CCN(c2ccc(Nc3ncc4cc5n(c4n3)C3(CCCCC3)CNC5=O)nc2)CC1 [Impure Form B] .
4000

Origin of measurements: patent US11261193B2
